- Test system: 3D7-MR4 trophozoite parasite-infected RBCs
- assay_method_text: Metabolomic profiling (hydrophilic metabolite changes, UHPLC-MS)
- Format: cell-based, Plasmodium falciparum
- test_context: metabolite inosine
metric_name: Log2(fold change) inosine

Exercise: In one line, give reported Log2(fold change) inosine of the entry Cc1cc(Nc2ccc(S(F)(F)(F)(F)F)cc2)n2nc(C(C)(F)F)nc2n1 [DSM265, reference compound] .
Key: 0.2300

Exercise: In one line, give reported Log2(fold change) inosine of the entry `CC(C)(C)OC(=O)N1CCN(c2ccccc2NC(=O)c2cccc(C(F)(F)F)c2Oc2ccc(F)cc2)CC1` .
Key: -0.2932

Exercise: In one line, give reported Log2(fold change) inosine of the entry CCN(CC)CCn1c(=N)n(CC(O)c2ccc(Cl)c(Cl)c2)c2ccccc21.Cl (stereo not drawn) .
Key: -0.0831

Exercise: In one line, give reported Log2(fold change) inosine of the entry CC(C)C[C@@H](/C=C/S(C)(=O)=O)NC(=O)[C@H](CC(C)C)NC(=O)[C@H](Cc1c[nH]c2ccccc12)NC(=O)CN1CCOCC1 [WLL-vs, reference compound] .
Key: 0.0926

Exercise: In one line, give reported Log2(fold change) inosine of the entry `FC(F)(F)c1cccc(Nc2nc3ccccc3nc2Nc2cccc(C(F)(F)F)c2)c1` .
Key: -0.1857

Exercise: In one line, give reported Log2(fold change) inosine of the entry `O=C(Nc1ccc(N2CCNCC2)cc1)c1ccn2ncc(-c3cccc(Cl)c3)c2n1.O=C(O)C(F)(F)F` .
Key: -0.5164

Exercise: In one line, give reported Log2(fold change) inosine of the entry `COc1cncc(-c2cncc(N3CCN(c4ccncc4)CC3)n2)c1` .
Key: -0.0754

Exercise: In one line, give reported Log2(fold change) inosine of the entry CCCN(CCC)CC(O)COc1ccccc1C(=O)Nc1ccccc1 (stereo not drawn) .
Key: 0.3717

Exercise: In one line, give reported Log2(fold change) inosine of the entry `COc1cc(-c2nc(-c3ccccc3)c(-c3ccccc3)[nH]2)ccc1OCCN(C)C` .
Key: -0.2181

====

Could you please report measured Log2(fold changes) trehalose-6-Phosphate for the items listed next?
- System: 3D7-MR4 trophozoite parasite-infected RBCs
- assay_method_text: Metabolomic profiling (hydrophilic metabolite changes, UHPLC-MS)
- Type: cell-based, Plasmodium falciparum
- test_context: metabolite trehalose-6-Phosphate; log2 fold change
Form: value (number only, do not type unit).

Exercise: In one line, give reported Log2(fold changes) trehalose-6-Phosphate of the entry O=C1C(O)=C([C@H]2CC[C@H](c3ccc(Cl)cc3)CC2)C(=O)c2ccccc21 [Atovaquone, reference compound] .
Key: 0.0905

Exercise: In one line, give reported Log2(fold changes) trehalose-6-Phosphate of the entry CCN(CC)CCn1c(=N)n(CC(O)c2ccc(Cl)c(Cl)c2)c2ccccc21.Cl (stereo not shown) [MMV000248] .
Key: 0.0000

Exercise: In one line, give reported Log2(fold changes) trehalose-6-Phosphate of the entry COc1cc(-c2nc(-c3ccccc3)c(-c3ccccc3)[nH]2)ccc1OCCN(C)C [MMV027496] .
Key: 0.0000

Exercise: In one line, give reported Log2(fold changes) trehalose-6-Phosphate of the entry CC(C)(C)OC(=O)N1CCN(c2ccccc2NC(=O)c2cccc(C(F)(F)F)c2Oc2ccc(F)cc2)CC1 [MMV030666] .
Key: 0.0000

Exercise: In one line, give reported Log2(fold changes) trehalose-6-Phosphate of the entry C[C@H]1Cc2c([nH]c3cc(Cl)c(F)cc23)[C@@]2(N1)C(=O)Nc1ccc(Cl)cc12 [KAE609, reference compound] .
Key: 0.0000

Exercise: In one line, give reported Log2(fold changes) trehalose-6-Phosphate of the entry CNc1nc(NCCCN(C)C)c2sc(-c3cccc(C(F)(F)F)c3)cc2n1 [MMV668311] .
Key: 0.0000

Exercise: In one line, give reported Log2(fold changes) trehalose-6-Phosphate of the entry CN(C)c1ccc2nc3ccc(=[N+](C)C)cc-3sc2c1 [Methylene blue, reference compound] .
Key: 0.0000

Exercise: In one line, give reported Log2(fold changes) trehalose-6-Phosphate of the entry COc1ccc(C2c3ccc4ccccc4c3Oc3ncn(CCCN(C)C)c(=N)c32)cc1 (stereo not shown) [MMV667491] .
Key: 0.0000

Exercise: In one line, give reported Log2(fold changes) trehalose-6-Phosphate of the entry CC(C)C[C@@H](/C=C/S(C)(=O)=O)NC(=O)[C@H](CC(C)C)NC(=O)[C@H](Cc1c[nH]c2ccccc12)NC(=O)CN1CCOCC1 [WLL-vs, reference compound] .
Key: 0.0000

Exercise: In one line, give reported Log2(fold changes) trehalose-6-Phosphate of the entry CCOC(=O)C1=C(C)NC2=C(C(=O)CC(c3ccc(OC)c(OC)c3)C2)C1c1ccccc1Cl (stereo not shown) [GNF-Pf-5660, reference compound] .
Key: 0.0000

Exercise: In one line, give reported Log2(fold changes) trehalose-6-Phosphate of the entry CCCN(CCC)CC(O)COc1ccccc1C(=O)Nc1ccccc1 (stereo not shown) [MMV006455] .
Key: 0.0000

Exercise: In one line, give reported Log2(fold changes) trehalose-6-Phosphate of the entry FC(F)(F)c1cccc(Nc2nc3ccccc3nc2Nc2cccc(C(F)(F)F)c2)c1 [MMV665794] .
Key: 0.0000

Exercise: In one line, give reported Log2(fold changes) trehalose-6-Phosphate of the entry COCCNCC(O)Cn1c2ccc(Cl)cc2c2cc(Cl)ccc21 (stereo not shown) [MMV019017] .
Key: 0.0000

Where these numbers come from: paper PMC7031696
